Just for reference, PubChem BioAssay (NCI) is where these values come from.

# Tested on: RPMI-8226 leukemia
# test-summary: NCI-60 one-dose screen, 48 h
# condition-description: 10 µM unless noted
# Protocol: Growth inhibition of the RPMI-8226 human tumor cell line is measured as a screen for anti-cancer activity. Cells are grown in 96 well plates and exposed to the test compound for 48 hours. Compounds are tested at a single concentration, which is 10^-5 M for most compounds. The reported endpoint is percent growth (GI% or GIPRCNT), where numbers from 0 - 100% represent growth inhibition, and numbers from -100% - 0 represent cell death. For example, a value of 40 represents 60% growth inhibition. […]
This is part of a sample that, as a whole, favours compounds with a hit. Of some 83,000 tested, about 20% had one in any assay. Activity calls are given as the source filed them. Rule for the calls: active = growth percent below 10; inactive = the rest.
// allowed return values: 1 (yes) = active, 0 (no) = inactive

# example entries with known answers
compound=O=S(=O)(NCCCNc1nccc(-c2c(-c3ccc(F)c(O)c3)nc3sccn23)n1)c1ccc(F)cc1 class="1 (yes)"
compound="COc1ccc(C2CC(n3nnnc3-c3ccccc3)=NN2)cc1 (stereo not given)" class="0 (no)"
compound=O=C(N=Nc1c(O)[nH]c2ccc(F)cc12)c1cc2ccccc2[nH]1 class="0 (no)"
compound=Cc1cccc(Oc2ccc(Nc3ncnc4ccc(NC(=O)CN(C)C)cc34)cc2Cl)c1 class="0 (no)"
compound=CC(C)Sc1nc(NN)c(C#N)c(-c2ccccc2)n1 class="0 (no)"
compound="COc1ccc(C(O)c2cc3c(N)c(C(=O)Nc4cccc(OC)c4)sc3nc2C)cc1 (stereo not given)" class="1 (yes)"
compound="O=c1[nH]c2c(s1)CCCC2CN1CCCCC1 (stereo not given)" class="0 (no)"
compound=COc1ccc(NC(=O)c2sc3nc(C)c(C(=O)c4ccc(OC)cc4)cc3c2N)cc1 class="0 (no)"

# lookup: test call for `COc1cc2oc(-c3cccc(C(=O)Nc4ccc(Cl)cc4)c3)cc(=O)c2c(OC)c1OC` 1 (yes)

# lookup: test call for `CN1CCN(c2cnc(C(=O)Nc3cc(F)cc4cccnc34)cn2)CC1` 0 (no)
